Test system: DCAMKL1;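 note: KINOMEscan kinase panel screen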
Construct: gene DCLK1
conditionsUsed: concentration: 1 μM, replicates: in singlicate; n = 1
measurementName: %Inh

INSERT INTO measurements (molecule, resultvalue) VALUES
  ('CSc1ccc(-c2cc3ncnc(SCC(=O)O)c3s2)cc1', '0%'),
  ('Cc1cccc(-c2nc(Nc3ccc4ncsc4c3)c3ccccc3n2)n1', '0%'),
  ('Cc1c(Cn2c(C)nn3c(=O)cc(N4CCOC(C)C4)nc23)cccc1C(F)(F)F (stereo not shown)', '0%'),
  ('O=c1cc(N2CCOCC2)nc2n(Cc3cccc(C(F)(F)F)c3)ccn12', '21%'),
  ('Cc1cccc(Cn2ccn3c(=O)cc(N4CCOCC4)nc23)c1', '21%'),
  ('O=C(c1ccc(-c2cc(-c3c[nH]nc3-c3ccccn3)ccn2)cc1)N1CCOCC1', '30%'),
  ('CN1c2ccc(CNc3ccc(F)cc3)cc2-c2c(cnn2C)S1(=O)=O', '14%'),
  ('NCC(NC(=O)c1cc(-c2cn[nH]c2)c(-c2ccnc3[nH]ccc23)s1)c1ccccc1.O=C(O)C(F)(F)F.O=C(O)C(F)(F)F (stereo not shown)', '6%'),
  ('CC(C)Oc1ccc2c(-c3ccnc(Nc4ccc(N5CCN(C)CC5)cc4)n3)cnn2n1', '93.5%'),
  ('NS(=O)(=O)c1cccc(-c2ccc3nccc(-c4cccc(S(N)(=O)=O)c4)c3c2)c1', '9%'),
  ('O=C(NCCNc1ccnc(Nc2ccc(F)cc2)n1)Nc1ccccc1F', '19%'),
  ('Cl.Oc1cccc(Nc2ccnc3cc(-c4ccncc4)ccc23)c1', '4%'),
  ('N#Cc1ccc(-c2cc(-c3c[nH]nc3-c3ccccn3)ccn2)cc1', '8%');
